Attribution: PubChem BioAssay AID1918934

Test system: 292921-168-R-J2-PDC complex spheroid viability
Test: Anticancer human tumor 292921-168-R-J2-PDC patient-derived pancreatic carcinoma cell line growth inhibition
Settings: second compound 10 µM; first compound 0.316 µM; active compounds read low
measurement_label: viability, T/C

Take a look at these entries with their results.
[
  {
    "molecule": "O=C(C=Cn1cnc(-c2cc(C(F)(F)F)cc(C(F)(F)F)c2)n1)NNc1cnccn1 + NC1CC1c1ccc(-c2cccc(O)c2)cc1",
    "system_tested": "292921-168-R-J2-PDC complex spheroid viability",
    "viability, T/C": "9.43%"
  },
  {
    "molecule": "Nc1ncn(C2CC(O)C(CO)O2)c(=O)n1 (configuration not stated) + NC1CCC(NC2CC2c2ccccc2)CC1",
    "system_tested": "292921-168-R-J2-PDC complex spheroid viability",
    "viability, T/C": "36%"
  },
  {
    "molecule": "CC1COCCN1c1cc(-c2ccnn2C)c2ccnc(-c3ccn[nH]3)c2n1 (configuration not stated) + NC1CC1c1ccc(-c2cccc(O)c2)cc1",
    "system_tested": "292921-168-R-J2-PDC complex spheroid viability",
    "viability, T/C": "15.1%"
  },
  {
    "molecule": "COc1cc(Nc2ncc3c(n2)-c2ccc(Cl)cc2C(c2c(F)cccc2OC)=NC3)ccc1C(=O)O + NC1CC1c1ccc(-c2cccc(O)c2)cc1",
    "system_tested": "292921-168-R-J2-PDC complex spheroid viability",
    "viability, T/C": "19.4%"
  },
  {
    "molecule": "COc1ccc([C@@H](O)c2cc(-c3ncnc4cc(N5CCOCC5)ccc34)c(F)cc2Cl)nn1 + NC1CC1c1ccc(-c2cccc(O)c2)cc1",
    "system_tested": "292921-168-R-J2-PDC complex spheroid viability",
    "viability, T/C": "30%"
  }
]

viability, T/C for CC1COCCN1c1cc(C2(S(C)(=N)=O)CC2)nc(-c2ccnc3[nH]ccc23)n1 (configuration not stated) + NC1CCC(NC2CC2c2ccccc2)CC1 ?
41.2%

Then this molecule: O=C(c1cc(Cc2n[nH]c(=O)c3ccccc23)ccc1F)N1CCN(C(=O)C2CC2)CC1 + NC1CC1c1ccc(-c2cccc(O)c2)cc1
53.6%

* * *

Test system: 292921-168-R-J2-PDC complex spheroid viability
Assay: Anticancer human tumor 292921-168-R-J2-PDC cell line growth inhibition;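 also: seven day compound exposure before luminescent viability read; 100% = DMSO vehicle control wells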
Conditions: second compound 0.1 µM; first compound 0.316 µM; active compounds read low
Entries are grouped by viability, T/C into these classes: low range (below 20%), mid range (20% to below 60%), high range (60% or more)

Could you place CC1COCCN1c1cc(C2(S(C)(=N)=O)CC2)nc(-c2ccnc3[nH]ccc23)n1 (stereo not drawn) + NC1CCC(NC2CC2c2ccccc2)CC1 in its proper category? Many thanks.
mid range

Then this compound: COc1ccc([C@@H](O)c2cc(-c3ncnc4cc(N5CCOCC5)ccc34)c(F)cc2Cl)nn1 + NC1CC1c1ccc(-c2cccc(O)c2)cc1
mid range

Then this compound: COc1ccc([C@@H](O)c2cc(-c3ncnc4cc(N5CCOCC5)ccc34)c(F)cc2Cl)nn1 + NC1CCC(NC2CC2c2ccccc2)CC1
mid range

* * *

Tested on: 292921-168-R-J2-PDC complex spheroid viability
Assay: Anticancer human tumor 292921-168-R-J2-PDC cell line growth inhibition; active = viability on the fitted dose curve at most 10% of control; inactive = the rest;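 also: seven day compound exposure before luminescent viability read; 100% = DMSO vehicle control wells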
Conditions: second compound 1 µM; first compound 0.01 µM
Give your call using only these classes: active, inactive

For orientation, consider the following solved cases.
[
  {
    "compound": "CC(C)CC(NC(=O)C(Cc1ccccc1)NC(=O)c1cnccn1)B(O)O (stereo unspecified) + NC1CC1c1ccc(-c2cccc(O)c2)cc1",
    "group": "active"
  },
  {
    "compound": "CC(C)CC(NC(=O)CNC(=O)c1cc(Cl)ccc1Cl)B1OC(=O)CC(CC(=O)O)(C(=O)O)O1 (stereo unspecified) + NC1CCC(NC2CC2c2ccccc2)CC1",
    "group": "inactive"
  }
]

Okay, next one:
I would be grateful if you could indicate the recorded call for Nc1ncn(C2CC(O)C(CO)O2)c(=O)n1 (stereo unspecified) + NC1CCC(NC2CC2c2ccccc2)CC1 .
inactive
